Numbers sourced from PubChem BioAssay (NCI).

Test system: OVCAR-8 ovarian
protocol_summary: NCI-60 one-dose screen, 48 h (100 = growth as untreated, 0 = no growth, -100 = all killed)
experimental_parameters: 10 µM
The panel holds about 83,000 compounds, 20% with a hit somewhere; the sample as a whole holds those more often.
measured_endpoint: growth (%)
Please reply with the bare figure in % and do not write the unit itself.

Prompt: Form: Entry = `c1csc(-c2cc(-c3cc(-c4cccs4)[nH]n3)n[nH]2)c1` | System = OVCAR-8 ovarian | growth = ____
Completion: 104

Prompt: For `COc1cc(OC)c2ccc(=O)oc2c1` then?
Completion: 103

Prompt: For `CCOc1ccc2[nH]c(=S)sc2c1` then?
Completion: 96.4

Prompt: For CCCCCCCCCCCCCCCCC1CC(=O)OC1=O (stereo unspecified) then?
Completion: 101

Prompt: For `Nc1ccc(N)c([N+](=O)[O-])c1` then?
Completion: 111

Prompt: For `CSc1[nH]c(=O)ncc1F` then?
Completion: 95.4

Prompt: For `CN(C)c1ccc2nc3ccc(=N)cc-3sc2c1` then?
Completion: 3.37

Prompt: For Cc1cc(C(O)(c2ccc(Nc3ccccc3)cc2)c2ccc(Nc3ccc(S(=O)(=O)O)cc3)cc2)ccc1N (stereo unspecified) then?
Completion: 6.11

Prompt: For `CNC(=S)NC(C)(C)C` then?
Completion: 99.8

Prompt: For `O=C(CCl)Nc1ccc2c(c1)C(=O)c1ccc(NC(=O)CCl)cc1C2=O` then?
Completion: -23

Prompt: For `CC(C)=C(NC(=O)c1ccccc1)C(=O)O` then?
Completion: 104

Prompt: For `O=[N+]([O-])c1cccc(C(F)(F)F)c1` then?
Completion: 106

Prompt: For `O=C1Cc2cc(O)ccc2O1` then?
Completion: 102

Prompt: For `O=C(O)CCCC(=O)O` then?
Completion: 99.4

Prompt: For CC1(c2ccccc2)NC(=O)NC1=O (stereo unspecified) then?
Completion: 103

Prompt: For `NC(=O)c1ccc(N=C(N)N=C(N)N)cc1` then?
Completion: 98.8

Prompt: For `O=c1[nH]cc(Cl)cc1O` then?
Completion: 91

Prompt: For `COCCOC(=O)c1ccc(C(C)C)cc1` then?
Completion: 103

Prompt: For COc1cc2c3cc1Oc1c(OC)c(OC)cc4c1C(Cc1ccc(O)c(c1)Oc1ccc(cc1)CC3N(C)CC2)N(C)CC4 (stereo unspecified) then?
Completion: 7.71

Prompt: For `COc1cc(/C=C/C(=O)c2ccccc2)cc(OC)c1OC` then?
Completion: 59.8

Prompt: For CCCCC(O)c1ccccc1 (stereo unspecified) then?
Completion: 93.8

Prompt: For `CN(C)c1nc2c([nH]1)c(=O)n(C)c(=O)n2C` then?
Completion: 96.9

Prompt: For `COC(=O)c1ccccc1N(C)C` then?
Completion: 105

Prompt: For CC1CCCC(CC(N)=O)CC1 (stereo unspecified) then?
Completion: 89

Prompt: For `CCCCC(=O)c1ccc(OC)cc1` then?
Completion: 97

Prompt: For `COc1cccc(O)c1O` then?
Completion: 86.2

Prompt: For CC(O)COc1ccc(-c2ccccc2)cc1 (stereo unspecified) then?
Completion: 108

Prompt: For `O=c1[nH]nc(SC2CCCCC2)c(=O)[nH]1` then?
Completion: 101

Prompt: For CN1C(=O)CN2CCc3ccccc3C2c2cc(Cl)ccc21 (stereo unspecified) then?
Completion: 101

Prompt: For `Cc1cc(/C=C/c2ccc3cc(N(C)C)ccc3[n+]2C)c(C)n1-c1ccccc1` then?
Completion: -60.4

Prompt: For `O=C(Nc1cccc(NC(=O)Nc2cc(C(F)(F)F)ccc2Cl)c1)Nc1cc(C(F)(F)F)ccc1Cl` then?
Completion: 14.3

Prompt: For `O=C(NCO)c1ccccc1` then?
Completion: 108

Prompt: For `CCCCOC(=O)c1ccc(C(C)C)cc1` then?
Completion: 106

Prompt: For `COc1cc([C@@H]2c3cc4c(cc3[C@H](O)[C@H]3COC(=O)[C@H]23)OCO4)cc(OC)c1OC` then?
Completion: 12.9

Prompt: For `COC(=O)/C=C\C(=O)OC` then?
Completion: 108

Prompt: For Cc1ccc(C(O)C2CC2)cc1 (stereo unspecified) then?
Completion: 94.1

Prompt: For `NCCC(=O)c1ccc(Cl)cc1` then?
Completion: 101

Prompt: For `CCN(CC)CCNc1ccc(CO)c2sc3ccccc3c(=O)c12` then?
Completion: 31

Prompt: For `Cc1ccc(S(=O)(=O)O)c(C)c1` then?
Completion: 105

Prompt: For NC(C(=O)O)c1ccc([N+](=O)[O-])cc1 (stereo unspecified) then?
Completion: 112

Prompt: For C#C[C@H]1CCCCCC1O (stereo partly specified) then?
Completion: 111

Prompt: For `CCOC(=O)C(CCC(C)C)C(=O)OCC` then?
Completion: 95.6

Prompt: For `COc1cc(CCN=Cc2ccccc2O)c([N+](=O)[O-])cc1OC` then?
Completion: 107

Prompt: For `OCCN1CCOCC1` then?
Completion: 110

Prompt: For `Oc1ccccc1-c1nnco1` then?
Completion: 98.9

Prompt: For `O=c1[nH]n(-c2ccccc2)c(=O)cc1Cl` then?
Completion: 101

Prompt: For `Cc1cc(C)c(CC(=O)O)c(C)c1` then?
Completion: 102

Prompt: For `CN(C)C(C)(C)CC(C)(C)C` then?
Completion: 109

Prompt: For `Cc1ccc(CCCC(=O)O)c(C)c1` then?
Completion: 97.4

Prompt: For `CC(C)(N)COS(=O)(=O)O` then?
Completion: 102

Prompt: For CC(CC(=O)c1ccccc1)c1ccccc1 (stereo unspecified) then?
Completion: 102

Prompt: For `CCN(CC)C(=O)/C=C(/C)c1ccccc1` then?
Completion: 105

Prompt: For `Cc1ccccc1N=C(c1ccccc1)C1C(=O)c2ccccc2C1=O` then?
Completion: 97.4

Prompt: For `Cc1c(O)cccc1O` then?
Completion: 106

Prompt: For `O=[N+]([O-])c1ccc(N=Nc2ccccc2)cc1` then?
Completion: 104

Prompt: For `Cc1cc(C)cc(NCCC#N)c1` then?
Completion: 126
